Measured % DAMGO + BFNA accompanies every entry in the list below.
Study system: mu opiate receptor (MOR) (Rattus norvegicus, UniProt P33535)
Construct: from tissue; host or cells: striatum (membrane preparation)
Sequence (P33535 whole entry): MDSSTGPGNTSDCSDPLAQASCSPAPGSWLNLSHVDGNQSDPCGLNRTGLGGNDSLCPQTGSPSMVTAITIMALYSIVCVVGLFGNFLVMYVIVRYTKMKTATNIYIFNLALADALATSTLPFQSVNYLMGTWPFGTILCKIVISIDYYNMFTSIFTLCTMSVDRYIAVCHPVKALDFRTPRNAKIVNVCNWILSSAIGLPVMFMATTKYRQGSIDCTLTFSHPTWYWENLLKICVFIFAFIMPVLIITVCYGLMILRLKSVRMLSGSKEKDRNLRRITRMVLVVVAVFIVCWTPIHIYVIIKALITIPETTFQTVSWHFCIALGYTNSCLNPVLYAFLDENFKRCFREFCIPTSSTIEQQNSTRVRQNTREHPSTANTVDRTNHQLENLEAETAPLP
Format: biochemical
The reply should be a number in %, with the unit left off.

1. COc1cccc(OC)c1CC(=O)CC1c2c(cc3c(c2OC)OCO3)CC[N+]1(C)C (stereo not shown) [Compound B0036] ... 199.7
2. O=S(=O)(c1ccc(Br)c(C(F)(F)F)c1)N1CCC2(CC1)OCCN2S(=O)(=O)c1ccc(Br)c(C(F)(F)F)c1 [Compound C0077] ... 621.4
3. COc1c2c(cc3c1C(CC(=O)CCc1ccc(Cl)cc1)[N+](C)(C)CC3)OCO2 (stereo not shown) [Compound B0017] ... 75.2
4. COc1ccc(S(=O)(=O)N2CCOC23CCN(CC2CC2)CC3)cc1 [Compound C0090M] ... 118.8
5. Cc1cccc(S(=O)(=O)N2CCC3(CC2)OCCN3S(=O)(=O)c2cccc(C)c2)c1 [Compound C0014] ... 116.1
6. CC(C)c1ccc(S(=O)(=O)N2CCC3(CC2)OCCN3S(=O)(=O)c2ccc(C(C)C)cc2)cc1 [Compound C0007] ... 17.0

stdin: State its % DAMGO + BFNA for this compound: CC(=O)c1ccc(C(=O)N2CCOC23CCN(S(=O)(=O)c2ccc(C(C)=O)cc2)CC3)cc1 [Compound C0053]
stdout: 211.6

stdin: Please list % DAMGO + BFNA recorded for the compound CN(C)c1cccc(OCC(O)CN2CCc3ccccc3C2)c1 (stereo not shown) [Compound A0050]
stdout: 109.6

stdin: Look up % DAMGO + BFNA of O=C1CN(Cc2ccccc2)C2(CCN(S(=O)(=O)c3cc(Cl)c(O)c(Cl)c3)CC2)N1 [Compound C0139M] and report it.
stdout: 129.8

stdin: Give the measured % DAMGO + BFNA for CS(=O)(=O)c1ccc(S(=O)(=O)N2CCOC23CCN(CC2CC2)CC3)cc1 [Compound C0126M]
stdout: 228.4
